// provenance: paper PMC11208452

Target: BMAL2 (recombinant human, Novus H00056938-Q01) (Homo sapiens) (UniProt Q8WYA1)
Sequence (Q8WYA1 whole entry, looked up): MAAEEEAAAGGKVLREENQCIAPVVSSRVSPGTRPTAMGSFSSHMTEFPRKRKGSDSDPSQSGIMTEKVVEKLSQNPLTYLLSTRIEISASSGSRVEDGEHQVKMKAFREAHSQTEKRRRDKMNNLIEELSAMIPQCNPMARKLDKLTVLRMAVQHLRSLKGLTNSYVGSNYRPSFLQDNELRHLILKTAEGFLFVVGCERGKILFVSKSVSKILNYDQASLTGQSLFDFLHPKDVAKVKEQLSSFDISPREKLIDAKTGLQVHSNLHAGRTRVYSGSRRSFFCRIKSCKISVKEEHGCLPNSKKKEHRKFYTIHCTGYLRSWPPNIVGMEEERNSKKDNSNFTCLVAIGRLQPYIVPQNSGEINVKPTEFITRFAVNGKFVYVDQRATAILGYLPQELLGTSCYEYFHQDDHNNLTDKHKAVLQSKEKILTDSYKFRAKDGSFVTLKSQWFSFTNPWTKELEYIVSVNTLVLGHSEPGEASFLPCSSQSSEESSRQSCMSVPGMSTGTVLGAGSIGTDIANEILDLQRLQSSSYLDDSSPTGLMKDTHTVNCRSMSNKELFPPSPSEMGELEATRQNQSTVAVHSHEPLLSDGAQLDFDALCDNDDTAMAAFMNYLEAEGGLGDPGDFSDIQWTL
Experiment: SPR
Conditions: BMAL2 immobilized; oligo analyte 50, 100, 200 nM; global 1:1 fit; OpenSPR (text also says BIAcore), 20 C, 30 ul/min; running buffer, salt and pH not stated (immobilization in 10 mM sodium acetate pH 5.5)
MEASURED METRIC: pKd
Answers are plain numbers, as −log10 of the molar value.

Consider GGCGCAACGCTGAGCAGCT (double strand) [human PD-L1 promoter predicted BMAL2 binding site oligo] . Its measured pKd is 6.68
